Test system: K86415-001-R-J1-PDC complex spheroids, viability
METHOD SUMMARY: Anticancer human tumor K86415-001-R-J1-PDC patient-derived lung adenocarcinoma cell line growth inhibition [RAS]
CONDITION SET: curve of first compound; second compound 0.0949 µM
Listed compounds paired with reported IC50
PARAMETER MEASURED: IC50

INSERT INTO results (compound, parameter_measured, test_result) VALUES
  ('Nc1ccn(C2OC(CO)C(O)C2(F)F)c(=O)n1 (stereo not drawn) + CCn1c(-c2cccnc2C(C)OC)c2c3cc(ccc31)N1CCOC(CC(NC(=O)C(C(C)C)N(C)C(=O)C3(F)CCN(C(=O)C#CC(C)(C)N(C)C)CC3)C(=O)N3CCCC(N3)C(=O)OCC(C)(C)C2)C1', 'IC50', '< 3.16 nM'),
  ('CC(Nc1ccc2c(c1)OCCn1cc(N3C(=O)OCC3C(F)F)nc1-2)C(N)=O (stereo not drawn) + CCn1c(-c2cc(N3CCN(C)CC3)cnc2C(C)OC)c2c3cc(ccc31)-c1csc(n1)CC(NC(=O)C1CC1C)C(=O)N1CCCC(N1)C(=O)OCC(C)(C)C2', 'IC50', '< 31.6 nM'),
  ('Cc1nc(N2CCC3(CC2)COC(C)C3N)c(CO)nc1Sc1ccnc(N)c1Cl (stereo not drawn) + CCn1c(-c2cccnc2C(C)OC)c2c3cc(ccc31)N1CCOC(CC(NC(=O)C(C(C)C)N(C)C(=O)C3(F)CCN(C(=O)C#CC(C)(C)N(C)C)CC3)C(=O)N3CCCC(N3)C(=O)OCC(C)(C)C2)C1', 'IC50', '< 31.6 nM'),
  ('CC(=O)OC12COC1CC(O)C1(C)C(=O)C(O)C3=C(C)C(OC(=O)C(O)C(NC(=O)OC(C)(C)C)c4ccccc4)CC(O)(C(OC(=O)c4ccccc4)C21)C3(C)C (stereo not drawn) + CCn1c(-c2cc(N3CCN(C)CC3)cnc2C(C)OC)c2c3cc(ccc31)-c1csc(n1)CC(NC(=O)C1CC1C)C(=O)N1CCCC(N1)C(=O)OCC(C)(C)C2', 'IC50', '< 31.6 nM'),
  ('CCN1CCN(Cc2ccc(Nc3ncc(F)c(-c4cc(F)c5nc(C)n(C(C)C)c5c4)n3)nc2)CC1 + CCn1c(-c2cccnc2C(C)OC)c2c3cc(ccc31)N1CCOC(CC(NC(=O)C(C(C)C)N(C)C(=O)C3(F)CCN(C(=O)C#CC(C)(C)N(C)C)CC3)C(=O)N3CCCC(N3)C(=O)OCC(C)(C)C2)C1', 'IC50', '< 3.16 nM'),
  ('CC1(C)CCC(Nc2ncc(C(F)(F)F)c(-c3c[nH]c4c(P(C)(C)=O)c(C#N)ccc34)n2)CN1 (stereo not drawn) + CCn1c(-c2cc(N3CCN(C)CC3)cnc2C(C)OC)c2c3cc(ccc31)-c1csc(n1)CC(NC(=O)C1CC1C)C(=O)N1CCCC(N1)C(=O)OCC(C)(C)C2', 'IC50', '< 0.949 nM'),
  ('CC1(C)CCC(Nc2ncc(C(F)(F)F)c(-c3c[nH]c4c(P(C)(C)=O)c(C#N)ccc34)n2)CN1 (stereo not drawn) + CCn1c(-c2cccnc2C(C)OC)c2c3cc(ccc31)N1CCOC(CC(NC(=O)C(C(C)C)N(C)C(=O)C3(F)CCN(C(=O)C#CC(C)(C)N(C)C)CC3)C(=O)N3CCCC(N3)C(=O)OCC(C)(C)C2)C1', 'IC50', '< 0.949 nM'),
  ('CC(C)NCC(C(=O)N1CCN(c2ncnc3c2C(C)CC3O)CC1)c1ccc(Cl)cc1 (stereo not drawn) + CCn1c(-c2cc(N3CCN(C)CC3)cnc2C(C)OC)c2c3cc(ccc31)-c1csc(n1)CC(NC(=O)C1CC1C)C(=O)N1CCCC(N1)C(=O)OCC(C)(C)C2', 'IC50', '< 31.6 nM');

----------
Tested on: K86415-001-R-J1-PDC complex spheroids, viability
METHOD SUMMARY: Anticancer human tumor K86415-001-R-J1-PDC cell line growth inhibition [RAS];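 note: spheroids exposed to agents for seven days before readout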
CONDITION SET: curve of first compound; second compound 0.0949 µM
pIC50: −log10 of the molar value.
PARAMETER MEASURED: pIC50

INSERT INTO results (molecule, test_result) VALUES
  ('O=C(c1ccc(F)c(F)c1Nc1ccc(I)cc1F)N1CC(O)([C@@H]2CCCCN2)C1 + CCn1c(-c2cccnc2C(C)OC)c2c3cc(ccc31)N1CCOC(CC(NC(=O)C(C(C)C)N(C)C(=O)C3(F)CCN(C(=O)C#CC(C)(C)N(C)C)CC3)C(=O)N3CCCC(N3)C(=O)OCC(C)(C)C2)C1', '> 8.50'),
  ('C[C@@H](NC(=O)c1ncnc(N)c1Cl)c1ncc(C(=O)Nc2cc(C(F)(F)F)c(Cl)cn2)s1 + CCn1c(-c2cccnc2C(C)OC)c2c3cc(ccc31)N1CCOC(CC(NC(=O)C(C(C)C)N(C)C(=O)C3(F)CCN(C(=O)C#CC(C)(C)N(C)C)CC3)C(=O)N3CCCC(N3)C(=O)OCC(C)(C)C2)C1', '> 7.50'),
  ('CC(Nc1ccc2c(c1)OCCn1cc(N3C(=O)OCC3C(F)F)nc1-2)C(N)=O (stereo not given) + CCn1c(-c2cccnc2C(C)OC)c2c3cc(ccc31)N1CCOC(CC(NC(=O)C(C(C)C)N(C)C(=O)C3(F)CCN(C(=O)C#CC(C)(C)N(C)C)CC3)C(=O)N3CCCC(N3)C(=O)OCC(C)(C)C2)C1', '> 7.50'),
  ('C=CC(=O)Nc1cc(Nc2nccc(-c3cn(C)c4ccccc34)n2)c(OC)cc1N(C)CCN(C)C + CCn1c(-c2cccnc2C(C)OC)c2c3cc(ccc31)N1CCOC(CC(NC(=O)C(C(C)C)N(C)C(=O)C3(F)CCN(C(=O)C#CC(C)(C)N(C)C)CC3)C(=O)N3CCCC(N3)C(=O)OCC(C)(C)C2)C1', '> 8.50'),
  ('CCc1c2c(nc3ccc(O)cc13)-c1cc3c(c(=O)n1C2)COC(=O)[C@]3(O)CC + CCn1c(-c2cccnc2C(C)OC)c2c3cc(ccc31)N1CCOC(CC(NC(=O)C(C(C)C)N(C)C(=O)C3(F)CCN(C(=O)C#CC(C)(C)N(C)C)CC3)C(=O)N3CCCC(N3)C(=O)OCC(C)(C)C2)C1', '> 9.02'),
  ('Nc1ccn(C2OC(CO)C(O)C2(F)F)c(=O)n1 (stereo not given) + CCn1c(-c2cc(N3CCN(C)CC3)cnc2C(C)OC)c2c3cc(ccc31)-c1csc(n1)CC(NC(=O)C1CC1C)C(=O)N1CCCC(N1)C(=O)OCC(C)(C)C2', '> 8.50'),
  ('CC(C)NCC(C(=O)N1CCN(c2ncnc3c2C(C)CC3O)CC1)c1ccc(Cl)cc1 (stereo not given) + CCn1c(-c2cccnc2C(C)OC)c2c3cc(ccc31)N1CCOC(CC(NC(=O)C(C(C)C)N(C)C(=O)C3(F)CCN(C(=O)C#CC(C)(C)N(C)C)CC3)C(=O)N3CCCC(N3)C(=O)OCC(C)(C)C2)C1', '> 7.50'),
  ('CC1(O)CCCC1n1c(=O)c(C(F)F)cc2cnc(NC3CCN(S(C)(=O)=O)CC3)nc21 (stereo not given) + CCn1c(-c2cc(N3CCN(C)CC3)cnc2C(C)OC)c2c3cc(ccc31)-c1csc(n1)CC(NC(=O)C1CC1C)C(=O)N1CCCC(N1)C(=O)OCC(C)(C)C2', '> 7.50'),
  ('C=CC(=O)Nc1cc(Nc2nccc(-c3cn(C)c4ccccc34)n2)c(OC)cc1N(C)CCN(C)C + CCn1c(-c2cc(N3CCN(C)CC3)cnc2C(C)OC)c2c3cc(ccc31)-c1csc(n1)CC(NC(=O)C1CC1C)C(=O)N1CCCC(N1)C(=O)OCC(C)(C)C2', '> 8.50'),
  ('CC(C)n1nc(-c2ccc3oc(N)nc3c2)c2c(N)ncnc21 + CCn1c(-c2cc(N3CCN(C)CC3)cnc2C(C)OC)c2c3cc(ccc31)-c1csc(n1)CC(NC(=O)C1CC1C)C(=O)N1CCCC(N1)C(=O)OCC(C)(C)C2', '> 9.50'),
  ('CCc1c2c(nc3ccc(O)cc13)-c1cc3c(c(=O)n1C2)COC(=O)[C@]3(O)CC + CCn1c(-c2cc(N3CCN(C)CC3)cnc2C(C)OC)c2c3cc(ccc31)-c1csc(n1)CC(NC(=O)C1CC1C)C(=O)N1CCCC(N1)C(=O)OCC(C)(C)C2', '> 9.02'),
  ('NC1c2ccccc2OC12CCN(c1cnc3c(N4CCCc5ncccc54)n[nH]c3n1)CC2 (stereo not given) + CCn1c(-c2cc(N3CCN(C)CC3)cnc2C(C)OC)c2c3cc(ccc31)-c1csc(n1)CC(NC(=O)C1CC1C)C(=O)N1CCCC(N1)C(=O)OCC(C)(C)C2', '> 7.50'),
  ('CC(=O)OC12COC1CC(O)C1(C)C(=O)C(O)C3=C(C)C(OC(=O)C(O)C(NC(=O)OC(C)(C)C)c4ccccc4)CC(O)(C(OC(=O)c4ccccc4)C21)C3(C)C (stereo not given) + CCn1c(-c2cccnc2C(C)OC)c2c3cc(ccc31)N1CCOC(CC(NC(=O)C(C(C)C)N(C)C(=O)C3(F)CCN(C(=O)C#CC(C)(C)N(C)C)CC3)C(=O)N3CCCC(N3)C(=O)OCC(C)(C)C2)C1', '> 7.50'),
  ('CC(C)n1nc(-c2ccc3oc(N)nc3c2)c2c(N)ncnc21 + CCn1c(-c2cccnc2C(C)OC)c2c3cc(ccc31)N1CCOC(CC(NC(=O)C(C(C)C)N(C)C(=O)C3(F)CCN(C(=O)C#CC(C)(C)N(C)C)CC3)C(=O)N3CCCC(N3)C(=O)OCC(C)(C)C2)C1', '> 9.50'),
  ('Cc1nc(N2CCC3(CC2)COC(C)C3N)c(CO)nc1Sc1ccnc(N)c1Cl (stereo not given) + CCn1c(-c2cc(N3CCN(C)CC3)cnc2C(C)OC)c2c3cc(ccc31)-c1csc(n1)CC(NC(=O)C1CC1C)C(=O)N1CCCC(N1)C(=O)OCC(C)(C)C2', '> 7.50');
